Measured pIC50, listed per entry for reference.
- assay target: Ba/F3 BCR-ABL1 P465S (Homo sapiens, UniProt P00519+P11274, P465S)
- Construct: BCR (N-terminal fusion partner of the oncoprotein)
- Sequence (P00519 28-1130 P465S limits assumed, one chain of several): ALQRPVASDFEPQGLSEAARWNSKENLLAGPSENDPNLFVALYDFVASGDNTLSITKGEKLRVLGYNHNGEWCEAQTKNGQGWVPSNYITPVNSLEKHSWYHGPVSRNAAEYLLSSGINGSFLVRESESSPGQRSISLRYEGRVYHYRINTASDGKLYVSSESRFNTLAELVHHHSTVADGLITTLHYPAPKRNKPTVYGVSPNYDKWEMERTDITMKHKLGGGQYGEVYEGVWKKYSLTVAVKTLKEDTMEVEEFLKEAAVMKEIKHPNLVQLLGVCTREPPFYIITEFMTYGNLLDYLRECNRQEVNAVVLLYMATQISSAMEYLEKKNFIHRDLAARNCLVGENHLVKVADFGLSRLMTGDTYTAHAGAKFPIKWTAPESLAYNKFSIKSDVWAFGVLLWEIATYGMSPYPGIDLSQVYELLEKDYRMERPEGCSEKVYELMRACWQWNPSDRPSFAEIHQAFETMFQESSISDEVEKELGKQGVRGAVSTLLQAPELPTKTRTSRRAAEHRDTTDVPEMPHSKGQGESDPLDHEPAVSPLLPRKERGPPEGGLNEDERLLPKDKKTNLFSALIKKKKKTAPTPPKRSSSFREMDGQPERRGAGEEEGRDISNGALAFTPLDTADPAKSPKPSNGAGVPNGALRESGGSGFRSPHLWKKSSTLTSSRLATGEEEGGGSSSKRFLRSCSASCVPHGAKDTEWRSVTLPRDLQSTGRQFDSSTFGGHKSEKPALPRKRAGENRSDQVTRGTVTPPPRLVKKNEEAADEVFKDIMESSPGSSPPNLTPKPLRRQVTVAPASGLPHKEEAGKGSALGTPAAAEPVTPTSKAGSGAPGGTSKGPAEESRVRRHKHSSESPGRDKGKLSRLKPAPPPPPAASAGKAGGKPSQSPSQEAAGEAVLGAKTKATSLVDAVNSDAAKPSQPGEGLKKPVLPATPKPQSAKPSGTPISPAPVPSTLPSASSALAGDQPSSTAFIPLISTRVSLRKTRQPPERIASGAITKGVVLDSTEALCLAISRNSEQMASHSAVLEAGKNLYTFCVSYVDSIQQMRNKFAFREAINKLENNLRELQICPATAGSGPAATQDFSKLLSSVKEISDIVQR
- method: Cell growth inhibitory activity assay (CellTiter-Glo), Ba/F3 BCR-ABL1 P465S cells
- assay context: 72 h, CTG cell viability
pIC50: −log10 of the molar value.

>  <compound>
C[C@@H]1COCc2nc3cc(C(=O)Nc4ccc(OC(F)(F)Cl)cc4)cc(-c4cnc5c(c4)-c4n[nH]cc4C5)c3n21 [T-3]

>  <pIC50>
7.30 to 8.30

$$$$
>  <compound>
C[C@@H]1COCc2nc3cc(C(=O)Nc4ccc(OC(F)(F)Cl)cc4)cc(-c4cnc5c(c4)-c4nn(-c6nccc(C#N)n6)cc4C5)c3n21 [T-69-B]

>  <pIC50>
6.00 to 7.30

$$$$
>  <compound>
Cc1cc(C)nc(-n2cc3c(n2)-c2cc(-c4cc(C(=O)Nc5ccc(OC(F)(F)Cl)cc5)cc5nc6n(c45)[C@H](C)COC6)cnc2C3)n1 [T-76]

>  <pIC50>
6.00 to 7.30

$$$$
>  <compound>
C[C@@H]1COCc2nc3cc(C(=O)Nc4ccc(OC(F)(F)Cl)cc4)cc(-c4cnc5c(c4)-c4nn(C6CC6)cc4C5)c3n21 [T-57]

>  <pIC50>
6.00 to 7.30

$$$$
>  <compound>
CN1Cc2ncc(-c3cc(C(=O)Nc4ccc(OC(F)(F)Cl)cc4)cc4c3C(C)(C)C(=O)N4)cc2C1=O [T-7]

>  <pIC50>
< 6.00

$$$$
>  <compound>
[2H]C([2H])([2H])C([2H])(n1cc2c(n1)-c1cc(-c3cc(C(=O)Nc4ccc(OC(F)(F)Cl)cc4)cc4nc5n(c34)[C@H](C)COC5)cnc1C2)C([2H])([2H])[2H] [T-54]

>  <pIC50>
7.30 to 8.30

$$$$
